Where do the numbers come from? From ChEMBL document CHEMBL1137740.

system: A549; test: Cytotoxicity against human A549 cells after 72 hrs by MTT assay; assay type: functional, cell-based; settings: A549, 72 h
Measurement Type: pIC50
API: returns pIC50 as number; meaning -log10 of concentration in mol/L.

These solved cases illustrate the format of a correct answer.
CN(C)c1ccc(/C=C2\CNC/C(=C\c3ccc(N(C)C)cc3)C2=O)cc1 5.85
CCOP(=O)(CCN1C/C(=C\c2ccc([N+](=O)[O-])cc2)C(=O)/C(=C/c2ccc([N+](=O)[O-])cc2)C1)OCC 6.00
CCOP(=O)(CCCCN1C/C(=C\c2ccc([N+](=O)[O-])cc2)C(=O)/C(=C/c2ccc([N+](=O)[O-])cc2)C1)OCC 5.52
O=C1/C(=C/c2ccc([N+](=O)[O-])cc2)CNC/C1=C\c1ccc([N+](=O)[O-])cc1 6.40
CCOP(=O)(CN1C/C(=C\c2ccc([N+](=O)[O-])cc2)C(=O)/C(=C/c2ccc([N+](=O)[O-])cc2)C1)OCC 6.00

QUERY: Quick check: pIC50 of CCOP(=O)(CCCN1C/C(=C\c2ccc([N+](=O)[O-])cc2)C(=O)/C(=C/c2ccc([N+](=O)[O-])cc2)C1)OCC ?
RESULT: 5.15

QUERY: Quick check: pIC50 of N[C@@H](Cc1ccc(N(CCCl)CCCl)cc1)C(=O)O ?
RESULT: 4.30

QUERY: Quick check: pIC50 of CCOP(=O)(CN1C/C(=C\c2ccc(F)cc2)C(=O)/C(=C/c2ccc(F)cc2)C1)OCC ?
RESULT: 5.09

QUERY: Quick check: pIC50 of CCOP(=O)(CCCN1C/C(=C\c2ccc(F)cc2)C(=O)/C(=C/c2ccc(F)cc2)C1)OCC ?
RESULT: 5.04

QUERY: Quick check: pIC50 of CCOP(=O)(CCN1C/C(=C\c2ccc(F)cc2)C(=O)/C(=C/c2ccc(F)cc2)C1)OCC ?
RESULT: 5.99

QUERY: Quick check: pIC50 of O=C1/C(=C/c2ccc(F)cc2)CNC/C1=C\c1ccc(F)cc1 ?
RESULT: 6.10
